System: MDCK-LE monolayers
Experiment: Cell-based transwell assay with MDCK-low efflux monolayers (passive permeability)
Type: in vitro ADME
Conditions: MDCK-LE monolayers
Starred links: 1 amine or outer side, 2 acyl side, 3 side chain; linkers in the order of their positions; H or OH if unused. Positions of bridges follow the written chain, without caps; N, C: chain ends. Non-standard residues stand in square brackets, D forms with d. Residues, ends and D or L forms follow the SMILES beside them. ξ: configuration not given here. *: point of attachment. Leu(3R-OH,Nα-propionyl) = CCC(=O)N[C@H](C(=O)*)[C@H](O)C(C)C; X1 = CC(C)[C@@H](O[*:3])[C@H](N[*:1])C(=O)[*:2]; X5 = CSC[C@@H](O[*:3])[C@H](N[*:1])C(=O)[*:2]; X3 = CC(C)C(O[*:3])C(N[*:1])C(=O)[*:2]; ξLeu(3ξ-OH) = CC(C)C(O)C(N)C(=O)O; NMeT = CN[CH](C(=O)O)[CH](C)O; dPhLac = O=C(O)[C@H](O)Cc1ccccc1; PhLac = O=C(O)[CH](O)Cc1ccccc1; NMeA = CN[CH](C)C(=O)O; NMeDha = C=C(NC)C(=O)O
Recorded measurements of % Fraction absorbed, one per entry
TEST_READOUT: % Fraction absorbed

* C=C1C(=O)NC(C)C(=O)N(C)C(C)C(=O)NC(C(O)C(C)C)C(=O)N(C)C(C(C)OC)C(=O)OC(C(C)C)C(NC(C)=O)C(=O)OC(Cc2ccccc2)C(=O)N1C (stereo not drawn) [Compound 12] (Ac-[X3][PhLac][NMeDha]A[NMeA][ξLeu(3ξ-OH)][NMeT](Me); ester 1-C; configuration not given here) | 9.9%
* C=C1C(=O)N[C@@H](C)C(=O)N(C)[C@@H](C)C(=O)N[C@@H]([C@@H](CSC)OC(=O)[C@@H](NC(=O)CC)[C@H](O)C(C)C)C(=O)N(C)[C@@H]([C@@H](C)OC)C(=O)O[C@H](C(C)C)[C@H](NC(C)=O)C(=O)O[C@H](Cc2ccccc2)C(=O)N1C [Compound 3] (Ac-[X1][dPhLac][NMeDha]A[NMeA][X5](Leu(3R-OH,Nα-propionyl))[NMeT](Me); ester 1-C) | 86.1%
* C=C1C(=O)NC(C)C(=O)N(C)C(C)C(=O)NC(C(O)C(C)C)C(=O)N(C)C(C(C)OC)C(=O)OC(C)C(NC(C)=O)C(=O)OC(Cc2ccccc2)C(=O)N1C (stereo not drawn) [Compound 15] (Ac-T[PhLac][NMeDha]A[NMeA][ξLeu(3ξ-OH)][NMeT](Me); ester 1-C; configuration not given here) | 15%

---

Recorded measurements of GI50, one per entry
System: SK-MEL-30 skin melanoma cell line (heterozygous NRAS Q61K)
Assay: Cell proliferation assay (resazurin cell viability), SK-MEL-30 cell line
Assay type: cell-based
Details: SK-MEL-30 cell line, average of Rep. 1 and 2; read-out: GI50 SK-MEL-30 Average
Starred links: 1 amine or outer side, 2 acyl side, 3 side chain; linkers in the order of their positions; H or OH if unused. Positions of bridges follow the written chain, without caps; N, C: chain ends. Non-standard residues stand in square brackets, D forms with d. Residues, ends and D or L forms follow the SMILES beside them. *: point of attachment. Leu(3R-OH,Nα-propionyl) = CCC(=O)N[C@H](C(=O)*)[C@H](O)C(C)C; X1 = CC(C)[C@@H](O[*:3])[C@H](N[*:1])C(=O)[*:2]; X5 = CSC[C@@H](O[*:3])[C@H](N[*:1])C(=O)[*:2]; NMeT = CN[C@H](C(=O)O)[C@@H](C)O; dPhLac = O=C(O)[C@H](O)Cc1ccccc1; NMeA = CN[C@@H](C)C(=O)O; NMeDha = C=C(NC)C(=O)O
TEST_READOUT: GI50

* C=C1C(=O)N[C@@H](C)C(=O)N(C)[C@@H](C)C(=O)N[C@@H]([C@@H](CSC)OC(=O)[C@@H](NC(=O)CC)[C@H](O)C(C)C)C(=O)N(C)[C@@H]([C@@H](C)OC)C(=O)O[C@H](C(C)C)[C@H](NC(C)=O)C(=O)O[C@H](Cc2ccccc2)C(=O)N1C [Compound 3] (Ac-[X1][dPhLac][NMeDha]A[NMeA][X5](Leu(3R-OH,Nα-propionyl))[NMeT](Me); ester 1-C) | > 260 nM
* C=C1C(=O)N[C@@H](C)C(=O)N(C)[C@@H](C)C(=O)N[C@@H]([C@H](OC(=O)[C@@H](NC(=O)CC)[C@H](O)C(C)C)C(C)C)C(=O)N(C)[C@@H]([C@@H](C)OC)C(=O)O[C@H](CSC)[C@H](NC(C)=O)C(=O)O[C@H](Cc2ccccc2)C(=O)N1C [Compound 2] (Ac-[X5][dPhLac][NMeDha]A[NMeA][X1](Leu(3R-OH,Nα-propionyl))[NMeT](Me); ester 1-C) | > 260 nM
